Source listed as paper PMC5820588.

MEASURED TARGET: recombinant human monoamine oxidase-B (Homo sapiens, UniProt P27338)
Sequence (P27338 whole entry): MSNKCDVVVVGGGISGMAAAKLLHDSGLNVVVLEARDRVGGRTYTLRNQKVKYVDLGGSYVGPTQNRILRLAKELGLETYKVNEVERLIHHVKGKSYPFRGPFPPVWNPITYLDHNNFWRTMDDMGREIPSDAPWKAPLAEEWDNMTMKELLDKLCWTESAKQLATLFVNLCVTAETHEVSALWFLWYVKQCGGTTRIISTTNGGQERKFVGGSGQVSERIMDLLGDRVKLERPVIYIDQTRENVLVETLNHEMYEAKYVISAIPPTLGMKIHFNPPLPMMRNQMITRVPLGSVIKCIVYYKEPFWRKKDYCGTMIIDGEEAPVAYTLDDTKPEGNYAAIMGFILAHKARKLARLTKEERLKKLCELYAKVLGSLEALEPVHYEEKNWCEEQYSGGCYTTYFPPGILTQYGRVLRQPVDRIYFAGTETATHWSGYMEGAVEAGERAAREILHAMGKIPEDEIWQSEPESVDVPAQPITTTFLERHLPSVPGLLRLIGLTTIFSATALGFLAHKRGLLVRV
EXPERIMENT: MAO-B inhibition, kynuramine deamination assay
TEST PARAMETERS: kynuramine 50 μM, pH 7.4, 37°C; mean ±SD of triplicate
EXPERIMENTAL ENDPOINT: pIC50
// pIC50 here means minus log10 of the molar concentration (mol/L)

// query Tell me the measured pIC50 of C=C(C)C(O)C(=O)c1c2c(c3occ(-c4ccc(O)c(O)c4)c(=O)c3c1O)C=CC(C)(C)O2 (stereo not shown) , please.
// result 5.37

// query Tell me the measured pIC50 of CC1(C)C=Cc2c(c3c(c4c(=O)c(-c5ccc(O)cc5)coc24)OC(C)(C)C(O)C3)O1 (stereo not shown) , please.
// result 5.15

----------
MEASURED TARGET: recombinant human monoamine oxidase-A (Homo sapiens, UniProt P21397)
Sequence (P21397 1-527): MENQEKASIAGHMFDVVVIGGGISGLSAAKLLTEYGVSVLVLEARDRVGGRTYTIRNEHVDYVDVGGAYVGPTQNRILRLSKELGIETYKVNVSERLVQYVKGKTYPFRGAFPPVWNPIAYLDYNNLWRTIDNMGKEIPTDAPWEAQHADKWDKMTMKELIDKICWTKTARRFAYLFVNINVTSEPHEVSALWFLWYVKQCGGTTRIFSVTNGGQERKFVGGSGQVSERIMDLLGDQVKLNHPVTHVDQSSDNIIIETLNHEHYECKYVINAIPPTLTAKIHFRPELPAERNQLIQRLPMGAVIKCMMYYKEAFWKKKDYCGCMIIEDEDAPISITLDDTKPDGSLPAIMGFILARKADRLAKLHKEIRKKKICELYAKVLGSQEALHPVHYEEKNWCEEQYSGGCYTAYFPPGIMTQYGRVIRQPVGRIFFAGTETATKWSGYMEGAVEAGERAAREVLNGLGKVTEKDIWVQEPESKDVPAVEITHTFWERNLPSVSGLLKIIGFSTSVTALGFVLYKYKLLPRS
EXPERIMENT: MAO-A inhibition, kynuramine deamination assay
TEST PARAMETERS: kynuramine 80 μM, pH 7.4, 37°C; mean ±SD of triplicate
EXPERIMENTAL ENDPOINT: pIC50
// pIC50 here means minus log10 of the molar concentration (mol/L)

// query Tell me the measured pIC50 of COC(c1c2c(c(O)c3c(=O)c(-c4ccc(O)c(O)c4)coc13)C=CC(C)(C)O2)C1OC1(C)C (centres unmarked) , please.
// result 4.15

// query Tell me the measured pIC50 of C=C(C)C(O)C(=O)c1c2c(c3occ(-c4ccc(O)c(O)c4)c(=O)c3c1O)C=CC(C)(C)O2 (centres unmarked) , please.
// result 4.14

// query Tell me the measured pIC50 of CC(C)=CCc1c2c(c(O)c3c(=O)c(-c4ccc(O)c(O)c4)coc13)C=CC(C)(C)O2 , please.
// result 4.34

// query Tell me the measured pIC50 of COC(Cc1c2c(c(O)c3c(=O)c(-c4ccc(O)c(O)c4)coc13)C=CC(C)(C)O2)C(C)(C)O (centres unmarked) , please.
// result 4.13

----------
Here's what we have: pIC50 numbers for CB2 receptor (Homo sapiens).
// pIC50 here means minus log10 of the molar concentration (mol/L)

// query Form field: pIC50 recorded for CC(C)=CCc1c2c(c3occ(-c4ccc(O)c(O)c4)c(=O)c3c1O)C=CC(C)(C)O2 [Pomiferin (V), pomiferin] with CB2 receptor (Homo sapiens) (enter value)
// result 5.88

// query Form field: pIC50 recorded for CC(C)=CCc1c2c(c(O)c3c(=O)c(-c4ccc(O)cc4)coc13)C=CC(C)(C)O2 [Warangalone (VII), warangalone] with CB2 receptor (Homo sapiens) (enter value)
// result 5.35
